- test protocol: RP, Restek Raptor Biphenyl, 100 × 2.1 mm, 2.7 µm, 50 °C, 0.4 mL/min, estimated dead time 0.55 min; A: water + 0.1% formic acid, pH 3; B: methanol + 0.1% formic acid, pH 3; gradient (min/%B) 0/5 1.12/5 6.41/99.5 10.01/99.5
- test conditions: stereoisomer not certain
LC retention time vs 2 min: less than gives Criterion met; not less than gives Criterion not met.

Worked set:
[
  {
    "molecule": "O=C(O)CC(O)C(=O)O (centres undefined) [MALATE]",
    "class label": "Criterion met"
  },
  {
    "molecule": "O=C(O)CC(O)(CC(=O)O)C(=O)O",
    "class label": "Criterion met"
  },
  {
    "molecule": "CC(CCC(=O)O)C1CCC2C3CCC4CC(O)CCC4(C)C3CC(O)C12C (centres undefined)",
    "class label": "Criterion not met"
  },
  {
    "molecule": "CCC[n+]1cccc(S(=O)(=O)[O-])c1",
    "class label": "Criterion met"
  },
  {
    "molecule": "C[C@H](CCC(=O)O)[C@H]1CC[C@H]2[C@@H]3[C@H](O)C[C@@H]4C[C@H](O)CC[C@]4(C)[C@H]3CC(=O)[C@]12C [(3ALPHA,5BETA,7ALPHA)-3,7-DIHYDROXY-12-OXOCHOLAN-24-OIC ACID]",
    "class label": "Criterion not met"
  }
]

Does the reported LC retention time of the following molecule sit strictly below 2 min? O=C(O)C(O)c1ccccc1 (centres undefined) [MANDELATE]
Criterion not met

Does the reported LC retention time of the following molecule sit strictly below 2 min? CCCCCCCCCCC[n+]1cccc(S(=O)(=O)[O-])c1
Criterion not met

Does the reported LC retention time of the following molecule sit strictly below 2 min? O=C(O)C(=O)Cc1ccccc1
Criterion not met

Does the reported LC retention time of the following molecule sit strictly below 2 min? O=C(O)Cc1ccc(O)cc1 [4-Hydroxyphenylacetic acid]
Criterion not met

Does the reported LC retention time of the following molecule sit strictly below 2 min? CC(CCC(=O)O)CC(=O)O (centres undefined)
Criterion not met
